Method description: chemical genetic growth profiling, strain panel (AID 1159580);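 further: tested at 20 µM; growth read once vehicle control cultures reached saturation at 30 °C; 1 = growth at the plate median or of vehicle wells; lower values mean less growth of the strain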
Experimental context: S. cerevisiae deletion strains, growth OD, locus YKR026C, strain gcn3, hits give low values
About 2,000 (36%) of roughly 5,500 compounds were called active. Not shown: some 18% with an inconclusive outcome. This is one part of the list.
Quantity name: normalized growth

CN(C)C(=O)C(CCN1CCC(O)(c2ccc(Cl)cc2)CC1)(c1ccccc1)c1ccccc1	0.997 (inactive)
CC(C)Nc1nc(Cl)nc(NC(C)C)n1	0.994 (inactive)
CCCCC(=O)O[C@]1(C(=O)CO)[C@@H](C)CC2C3CCC4=CC(=O)C=C[C@]4(C)[C@@]3(F)C(O)C[C@@]21C (stereo not given in full)	0.97 (inactive)
O=C(O)CCc1nc(-c2ccccc2)c(-c2ccccc2)o1	0.958 (inactive)
CCC(=O)OCC(=O)C1(OC(=O)CC)C(C)CC2C3CCC4=CC(=O)C=CC4(C)C3(Cl)C(O)CC21C (stereo not given)	0.983 (inactive)

---

Method description: chemical genetic growth profiling, strain panel (AID 1159580);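 further: tested at 20 µM; growth read once vehicle control cultures reached saturation at 30 °C; 1 = growth at the plate median or of vehicle wells; lower values mean less growth of the strain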
Experimental context: S. cerevisiae deletion strains, growth OD, locus YER111C, strain swi4, hits give low values
Screen size: about 5,500 compounds; about 2,000 (36%) were called active. Roughly 18% stayed inconclusive and do not appear here. The list shows a part of the results.
Quantity name: normalized growth

Oc1ccc2c3c1OC1[C@@H](O)CC[C@@]4(O)[C@@H](C2)N(CC2CCC2)CC[C@]314 (some centres undefined)	0.997 (inactive)
COC1C(O)C(O[C@H]2CC[C@]3(C=O)C4C(CC[C@]3(O)C2)[C@@]2(O)CC[C@H](C3=CC(=O)OC3)[C@@]2(C)C[C@H]4OC(C)=O)OC(C)C1OC(C)=O (some centres undefined)	1.02 (inactive)
COC(=O)N/N=C\c1c[n+]([O-])c2ccccc2[n+]1[O-]	0.984 (inactive)
Cc1c(C(N)=O)cc([N+](=O)[O-])cc1[N+](=O)[O-]	1.02 (inactive)
COc1nc(NC(C)C)nc(NC(C)C)n1	1.02 (inactive)
CSc1nc(NC(C)C)nc(NC(C)C)n1	0.977 (inactive)
CC(C)Nc1nc(Cl)nc(NC(C)C)n1	0.994 (inactive)
CC1=CC(=O)C2C(C)(C)CCC[C@]2(C)[C@@]1(O)CCc1ccoc1 (some centres undefined)	0.999 (inactive)
CO[C@@H]1[C@@H](OC(N)=O)[C@@H](O)[C@H](Oc2ccc3c(O)c(NC(=O)c4ccc(O)c(CC=C(C)C)c4)c(=O)oc3c2C)OC1(C)C	1.03 (inactive)

---

Method description: chemical genetic growth profiling, strain panel (AID 1159580);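 further: tested at 20 µM; growth read once vehicle control cultures reached saturation at 30 °C; 1 = growth at the plate median or of vehicle wells; lower values mean less growth of the strain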
Experimental context: S. cerevisiae deletion strains, growth OD, locus YAL021C, strain ccr4, hits give low values
The whole screen tested about 5,500 compounds, of which about 2,000 (36%) were called active. Another 18% or so got no clear call; they are omitted. Some of the results follow.
For each record, check the reported normalized growth: if it is below 1 write satisfied, else write not satisfied.

COc1c(O)cc2c(c1O)[C@H]1O[C@H](CO)[C@@H](O)[C@H](O)[C@@H]1OC2=O	not satisfied
O=C(CCCN1CCC(O)(c2ccc(Cl)cc2)CC1)c1ccc(F)cc1	satisfied
COC1=CC(=O)C=C(OC)C1=O	not satisfied
COC(=O)CC1C(C)(C)C(OC(C)=O)[C@@H]2[C@@H](OC(C)=O)[C@]34O[C@@]2(O)[C@]1(C)C3CC[C@]1(C)C4=CC(=O)O[C@H]1c1ccoc1 (stereo partly specified)	not satisfied
Cc1ccc(-c2nc3ccc(C)cn3c2CC(=O)N(C)C)cc1	not satisfied
CC(C)(C)NCC(O)COc1cccc2c1CCCC2=O (stereo unspecified)	satisfied
CCC(=O)OCC(=O)[C@@]1(OC(=O)CC)[C@@H](C)CC2C3CCC4=CC(=O)C=C[C@]4(C)C3(F)[C@@H](O)C[C@@]21C (stereo partly specified)	satisfied
CC(=O)OCC(=O)[C@@]1(O)CCC2C3C[C@H](C)C4=CC(=O)C=CC4(C)C3[C@@H](O)CC21C (stereo partly specified)	not satisfied
CC[C@@]1(O)C(=O)OCc2c1cc1n(c2=O)Cc2cc3cc(O)ccc3nc2-1	not satisfied
NC(=O)c1cc([N+](=O)[O-])cc([N+](=O)[O-])c1	not satisfied
NC(=O)c1ccc([N+](=O)[O-])cc1Cl	satisfied
CCc1ccc2c(O)c3c(cc2c1C(=O)OC)C(=O)c1c(O)ccc(O)c1C3=O	satisfied
COc1ccc(-c2cc(=O)c3c(O)cc(O)cc3o2)cc1	satisfied
O=C(O)C1=CC(=C(c2ccc(O)c(C(=O)O)c2)c2ccc(O)c(C(=O)O)c2)C=CC1=O	satisfied
O=C(CCCN1CCC2(CC1)C(=O)NCN2c1ccccc1)c1ccc(F)cc1	satisfied
CC[C@@]1(O)C(=O)OCc2c1cc1n(c2=O)Cc2cc3ccccc3nc2-1	satisfied
CCCc1nc(C)c2c(=O)[nH]c(-c3cc(S(=O)(=O)N4CCN(CC)CC4)ccc3OCC)nn12	satisfied
CN[C@H]1CC[C@@H](c2ccc(Cl)c(Cl)c2)c2ccccc21	satisfied
